Where do the numbers come from? From PubChem BioAssay.

The reader will find reported differential viability (reversal) values listed item by item below.
Experiment notes: reversal of MRP1-mediated doxorubicin resistance, pilot screen, H69AR cells, doxorubicin co-treatment (AID 601)
Condition context: H69AR cells + 2 uM doxorubicin, CellTiter-Glo, 72 h; at 10 µM; active compounds read high
Active and inactive are the calls of the source.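 Rule for the calls: active = viability loss from added drug above about 55%, and viability with drug at most 40%, in both replicates (limit read from the data, passing the limit was not always enough); inconclusive = both conditions met in only one replicate; inactive = neither replicate meets both conditions.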

CCOC(=O)C1=C(C)Nc2nnnn2C1c1c[nH]c2ccccc12 (stereo unspecified)
7.95% (inactive)
Cc1ncc([N+](=O)[O-])n1CC(O)CCl (stereo unspecified)
0.25% (inactive)
O=C1CCCN1CCCNc1ncnc2c1[nH]c1ccc(Cl)cc12
3.12% (inactive)
CC(C)CCNC(=O)[C@H](CC(C)C)NC(=O)[C@H]1O[C@@H]1C(=O)O
5.67% (inactive)
COC(=O)C1=C(C)n2nnnc2NC1c1ccc(Cl)cc1 (stereo unspecified)
8.47% (inactive)

Query block: What value of differential viability (reversal) has been recorded for this entry: CN(C)CCOc1ccccc1Cc1ccccc1
Result block: 11% (inactive)
